biological target: FAK FAT domain (paxillin-FAT binding) (Homo sapiens, UniProt Q05397); construct: FP Buffer containing 20 μM FAT and 0.1 μM TAMRA-LD2; assay: Competition fluorescence polarization (FP) assay, inhibition of TAMRA-LD2 binding to FAT; conditions: read-out: FP Ki
Positions of bridges follow the written chain, without caps; N, C: chain ends. Non-standard residues stand in square brackets, D forms with d. Residues, ends and D or L forms follow the SMILES beside them. S5 = C=CCCC[C@](C)(N)C(=O)O
property: pKi
// scale note: pKi = -log10(conc_M); give the bare number

Prompt: Output pKi of CC(=O)N[C@@H](CO)C(=O)N[C@@H](C)C(=O)N[C@H](C(=O)N[C@@H](CCCNC(=N)N)C(=O)N[C@@H](CCC(=O)O)C(=O)N[C@@]1(C)CCCC=CCCC[C@@](C)(C(=O)N[C@@H](C)C(=O)N[C@@H](CO)C(=O)N[C@@H](CC(C)C)C(=O)N[C@@H](CO)C(=O)N[C@@H](CC(=O)O)C(N)=O)NC(=O)[C@H](CC(C)C)NC(=O)[C@H](CCC(=O)O)NC(=O)[C@H](CC(=O)O)NC1=O)[C@@H](C)O [Peptide 1917, Ac-SATRES5DELS5ASLSD-NH2] (Ac-SATRE[S5]DEL[S5]ASLSD-NH2; staple 6-10)
Response: 5.17
